system: SW-620; assay: NCI tumour cell line growth inhibition, 48 h
Active and inactive are the calls of the source. No stated cut-off is given here; in the data, active = GI50 up to about 1.1 µM and inactive = higher.
// classify into yes = active, no = inactive

Example results:
compound	cat
Cc1cccc(NC(=O)C(=O)C(C(=O)c2ccc3ccccc3c2)C2OC(=O)c3ccccc32)c1C (centres undefined)	no
CC1C2CC(CC2(C)O)C1(C)C (centres undefined)	no
O=P1(C(O)c2ccccc2)N(Cc2ccccc2)[C@@H]2CCCC[C@H]2N1Cc1ccccc1 (some centres undefined)	no

Alright, here's another compound for you.
Dear all, I need the recorded test outcome for CCN(CC)CCn1nc(N)c2nc3ccccc3nc21 , thank you.
no

* * *

tested on: 786-0; experiment: NCI tumour cell line growth inhibition, 48 h
The source made the active and inactive calls. Rule as the data show it: active = GI50 up to about 1.1 µM and inactive = higher.
experimental-readout: GI50

In the examples that follow, each entry is paired with its recorded GI50.
compound	result
CCOc1ccc(N/C(=C(/C(Cl)=C(/Cl)NCCO)[N+](=O)[O-])n2nnc3ccccc32)cc1	29.6 µM (inactive)
COC(=O)c1ccc(C)cc1C1CN=NC12Cc1cc(C)ccc1C2=O (centres undefined)	21.3 µM (inactive)
O=[N+]([O-])c1cc(C2(N3CCCCC3)CCCCC2)sc1Br	3.94 µM (inactive)
CC1(C)N=c2c(ncn2-c2ccccc2)=C(C(N)=O)N1	> 100 µM (inactive)
CCCCCCC(/C=N/O)C(C)(O)CCC (centres undefined)	> 100 µM (inactive)

# return GI50 for each item in the list
1. CO/C(=N\N=C\c1ccc(OC)cc1OC)c1ccncc1
2. CCCCCCCCCCCCC(CCCCCCCCCCCC)OP(=O)(O)O
3. CC(=O)c1sc(=N)n(-c2c(C)cccc2C)c1C
4. Cc1cc(C)n(C(=O)CSc2nnc(SCC(=O)n3nc(C)cc3C)s2)n1

1. > 10 µM (inactive)
2. > 100 µM (inactive)
3. > 100 µM (inactive)
4. > 100 µM (inactive)
